system: Bacillus cereus; test: Antibacterial activity against Bacillus cereus assessed as inhibition of bacterial growth incubated for 24 hrs by microbroth dilution method; format: functional; settings: Bacillus cereus, read-out: MIC
measured-parameter: MIC

These solved cases illustrate the format of a correct answer.
compound	MIC
O=c1c(-c2ccc(O)c(-c3c(O)cc(O)c4c(=O)c(-c5ccc(O)cc5)coc34)c2)coc2cc(O)cc(O)c12	3.1 µM
COc1cc(-c2coc3cc(O)c(-c4cc(-c5coc6cc(O)ccc6c5=O)ccc4O)cc3c2=O)ccc1O	12 µM
O=c1c(-c2ccc(O)c(Oc3ccc(-c4coc5c(Cl)c(O)ccc5c4=O)cc3)c2)coc2cc(O)ccc12	> 50 µM
O=c1c(-c2ccc(Oc3c(O)cc(O)c4c(=O)c(-c5ccc(O)cc5)coc34)cc2)coc2c(Cl)c(O)cc(O)c12	> 50 µM
O=c1c(-c2ccc(O)c(Oc3ccc(-c4coc5c(Cl)c(O)cc(O)c5c4=O)cc3)c2)coc2cc(O)ccc12	> 50 µM

# query: MIC of entry O=c1c(-c2ccc(O)c(-c3cc(-c4coc5c(Cl)c(O)cc(O)c5c4=O)ccc3O)c2)coc2cc(O)cc(O)c12
> 50 µM

# query: MIC of entry O=c1c(-c2ccc(O)cc2)coc2cc(O)ccc12 [DAIDZEIN]
> 50 µM

# query: MIC of entry O=C(O)c1cn(C2CC2)c2cc(N3CCNCC3)c(F)cc2c1=O [CIPROFLOXACIN]
< 0.4 µM

# query: MIC of entry O=c1c(-c2ccc(O)cc2)coc2c(-c3cc(-c4coc5cc(O)cc(O)c5c4=O)ccc3O)c(O)ccc12
6.2 µM

# query: MIC of entry COc1c(O)ccc2c(=O)c(-c3ccc(O)c(-c4cc(-c5coc6cc(O)ccc6c5=O)ccc4O)c3)coc12
25 µM

All figures here come from ChEMBL document CHEMBL5226364.
